Recorded pKd by entry
tested_on: T1, human PD-L1-his taq protein (human, UniProt Q9NZQ7 19-239, limits assumed)
T1 construct: also called recombinant PD-L1 protein; recombinant human PD-L1; not shown: his tag
protocol_details: SPR Biacore T200, antibody captured, PD-L1-his injected
By convention, pKd is the negative base-10 log of a molar concentration.

INSERT INTO assay_data (binder, reported_metric, recorded_measurement) VALUES
  ('Hu1210-14 (antibody, V domains shown, Hu1210 VH.3a x Vk.1; human gamma 1 / kappa constant domains) VH: EVQLLESGGGLVQPGGSLRLSCAASGFTFSSYDMSWVRQAPGKSLEWVATISDGGGYIYYSDSVKGRFTISRDNSKNTLYLQMNSLRAEDTAVYICAREFGKRYALDYWGQGTTVTVSS VL: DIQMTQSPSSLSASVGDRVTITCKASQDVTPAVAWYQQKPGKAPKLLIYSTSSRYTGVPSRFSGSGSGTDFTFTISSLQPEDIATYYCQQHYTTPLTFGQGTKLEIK', 'pKd', 9.36),
  ('Hu1210-36 (antibody, V domains shown, Hu1210 VH.5d (printed ''VH.Sd'') x Vk.2; human gamma 1 / kappa constant domains) VH: EVQLVESGGGLVQPGGSLRLSCAASGFTFSSYDMSWVRQTPEKSLEWVATISDGGGYIYYSDSVKGRFTISRDNAKNNLYLQMNSLRAEDTAVYICAREFGKRYALDYWGQGTLVTVSS VL: DIQMTQSPSSLSASVGDRVTITCKASQDVTPAVAWYQQKPGKAPKLLIYSTSSRYTGVPSRFSGSGSGTDFTLTISSLQPEDFATYYCQQHYTTPLTFGQGTKLEIKR', 'pKd', 9.27);

Next, consider the following binder.
Please report the recorded pKd for Hu1210-16 (antibody, V domains shown, Hu1210 VH.4a x Vk.1; human gamma 1 / kappa constant domains) VH: EVQLVESGGGLVQPGGSLRLSCAASGFTFSSYDMSWVRQAPGKGLEWVATISDGGGYIYYSDSVKGRFTISRDNAKNSLYLQMNSLRDEDTAVYYCAREFGKRYALDYWGQGTTVTVSS VL: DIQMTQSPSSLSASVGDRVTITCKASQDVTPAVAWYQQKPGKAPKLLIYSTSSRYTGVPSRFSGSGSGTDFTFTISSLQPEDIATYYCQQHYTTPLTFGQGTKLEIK .
9.17

meta.source: patent US20220363763A1
